tested on: LCLC-97TM1; experiment: relative viability (nuclei count vs DMSO), 5 days (fraction); higher = more cells survive; details: first compound 0.08 µM
measurement name: relative viability

// worked examples, relative viability included
molecule	relative viability
CCCCCCCCCCCC1=C(O)C(=O)C=C(O)C1=O [Embelin] + Nc1ncn([C@H]2C[C@H](O)[C@@H](CO)O2)c(=O)n1 [Decitabine] (partner 2 µM)	0.241
CCCCCCCCCCCC1=C(O)C(=O)C=C(O)C1=O [Embelin] + NC(=O)Nc1cc(-c2cccc(F)c2)sc1C(=O)N[C@H]1CCCNC1 [AZD7762] (partner 0.2 µM)	0.223
CCCCCCCCCCCC1=C(O)C(=O)C=C(O)C1=O [Embelin] + Cc1nc(Nc2ncc(C(=O)Nc3c(C)cccc3Cl)s2)cc(N2CCN(CCO)CC2)n1 [Dasatinib] (partner 0.075 µM)	1.05

Shift focus to the following entry.
Entry CCCCCCCCCCCC1=C(O)C(=O)C=C(O)C1=O [Embelin] + CCNC(=O)c1noc(-c2cc(C(C)C)c(O)cc2O)c1-c1ccc(CN2CCOCC2)cc1 [Luminespib] (partner 0.01 µM) , relative viability reported as 0.78
